Data credit: patent US20220380463A1

# MFI pH 6.0 per record follows
target: T1, human CD3 on CD3+ Jurkat cells (human, UniProt P07766 23-207); assay: flow cytometry, 100 nM IgG on CD3+ Jurkat cells, pH 6.0
T1 construct: whole, on cells; Native CD3 complex on cells; the other CD3 chains are not specified for this assay; also called Human CD3+ Jurkat
T1 sequence (P07766 23-207): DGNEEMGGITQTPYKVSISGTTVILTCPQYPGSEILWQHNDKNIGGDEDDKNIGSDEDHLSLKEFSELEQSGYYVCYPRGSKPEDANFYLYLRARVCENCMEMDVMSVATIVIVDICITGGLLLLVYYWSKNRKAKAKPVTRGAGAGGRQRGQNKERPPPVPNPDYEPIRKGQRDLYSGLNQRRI
Kindly provide the numeric value in MFI only, without the unit symbol.

# count of solved cases: 4
Binder: SAD10319_P02_D06 (ADI-48631) (antibody, V domains shown, IgG; also called Ab11) VH: QVQLVQSGAEVKKPGASVKVSCKASGYTFTDYAMHWVRQAPGQRLEWMGWINAGTGATIYSQKFQGRVTITRDTSASTAYMELSSLRSEDTAVYYCARDAYHHYFYDVWGQGTLVTVSS VL: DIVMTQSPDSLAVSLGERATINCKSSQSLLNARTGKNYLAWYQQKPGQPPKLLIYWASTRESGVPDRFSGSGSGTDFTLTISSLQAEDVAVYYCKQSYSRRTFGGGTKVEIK
MFI pH 6.0 (MFI): 3100
//
Binder: SAD10320_P02_C06 (ADI-48654) (antibody, V domains shown, IgG; also called Ab84) VH: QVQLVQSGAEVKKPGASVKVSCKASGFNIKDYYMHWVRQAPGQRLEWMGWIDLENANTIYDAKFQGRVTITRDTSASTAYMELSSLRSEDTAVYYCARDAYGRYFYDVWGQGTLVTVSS VL: DIVMTQSPDSLAVSLGERATINCKSSQSLLNARTGKNYLAWYQQKPGQPPKLLIYWASTRESGVPDRFSGSGSGTDFTLTISSLQAEDVAVYYCKQSGHRRTFGGGTKVEIK
MFI pH 6.0 (MFI): 5590
//
Binder: SAD10318_P03_E09 (ADI-48611) (antibody, V domains shown, IgG; also called Ab207) VH: QVQLVQSGAEVKKPGASVKVSCKASGFNIKDYYMHWVRQAPGQRLEWMGWIDLENANTIYDAKFQGRVTITRDTSASTAYMELSSLRSEDTAVYYCARDAYGHYHYDVWGQGTLVTVS VL: DIVMTQSPDSLAVSLGERATINCKSSQSLLNARTGHNHLAWYQQKPGQPPKLLIYWASTRESGVPDRFSGSGSGTDFTLTISSLQAEDVAVYYCKQSYHHRTFGGGTKVEIK
MFI pH 6.0 (MFI): 123
//
Binder: SAD10318_P01_A02 (ADI-48581) (antibody, V domains shown, IgG; also called Ab237) VH: QVQLVQSGAEVKKPGASVKVSCKASGFNIKDYYMHWVRQAPGQRLEWMGWIDLENANTIYDAKFQGRVTITRDTSASTAYMELSSLRSEDTAVYYCARDAYHHYFYDVWGQGTLVTVSS VL: DIVMTQSPDSLAVSLGERATINCKSSQSLLNARTHKNHLAWYQQKPGQPPKLLIYWASTRESGVPDRFSGSGSGTDFTLTISSLQAEDVAVYYCKQSYHHRTFGGGTKVEIK
MFI pH 6.0 (MFI): 1730

Note: attention shifts to another entry.
Which MFI pH 6.0 is reported for this binder? SAD10319_P01_F02 (ADI-48624) (antibody, V domains shown, IgG; also called Ab241) VH: QVQLVQSGAEVKKPGASVKVSCKASGYTFESYDMHWVRQAPGQRLEWMGWIDAGTGNTKYSQKFQGRVTITADESTSTAYMELSSLRSEDTAVYYCARDHYGHYFYDVWGQGTLVTVSS VL: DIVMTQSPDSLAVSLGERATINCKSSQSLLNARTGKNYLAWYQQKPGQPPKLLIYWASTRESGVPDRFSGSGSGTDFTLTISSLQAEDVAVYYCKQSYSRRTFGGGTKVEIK
895
